Just for reference, PubChem BioAssay is where these values come from.

target: Torsin-1A (Homo sapiens) (UniProt O14656); assay: TOR1A wild-type binding on microarray – cell lysate, small-molecule microarray, lysate, 635/667 nm, primary screen (AID 1149); details: COS7 hTOR1A-WT lysate, 635 nm fluorescence, higher = more signal
Sequence (O14656 whole entry, looked up): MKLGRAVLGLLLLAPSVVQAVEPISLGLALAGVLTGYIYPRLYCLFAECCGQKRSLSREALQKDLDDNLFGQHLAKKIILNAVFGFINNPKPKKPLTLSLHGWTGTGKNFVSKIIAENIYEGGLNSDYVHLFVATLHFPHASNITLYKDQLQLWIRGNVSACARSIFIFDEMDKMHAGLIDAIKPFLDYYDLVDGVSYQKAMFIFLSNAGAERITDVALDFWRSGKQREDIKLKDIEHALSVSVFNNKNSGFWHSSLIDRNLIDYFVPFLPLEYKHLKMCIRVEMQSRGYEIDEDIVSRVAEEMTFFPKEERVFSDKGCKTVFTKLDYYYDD
Classification field: enter y for composite z-score values not below 0.4, n for values below it.

-- ask Decide: is the reported value of composite z-score for `CCOC(=O)C[C@H]1[C@H](OC(=O)c2ccccc2-c2ccccc2)[C@@H](NC(=O)c2ccc3ccccc3c2)c2cc(OCCCO)ccc2N1C(=O)c1ccccc1` equal to or greater than 0.4?
-- reply n

-- ask Decide: is the reported value of composite z-score for `CN(C)CCCCCCNC(=O)[C@@H]1C[C@@H]2C(=O)N3CCC[C@H]3C(=O)N2[C@@H]1c1cccc(OCCO)c1` equal to or greater than 0.4?
-- reply y

-- ask Decide: is the reported value of composite z-score for CN1C2C=C(CCCO)C(C3C(=O)N(C(N)=O)C(=O)C32)C1C1CC1 (stereo unspecified) equal to or greater than 0.4?
-- reply n

-- ask Decide: is the reported value of composite z-score for `COC(=O)[C@@]1(Cc2ccc(F)cc2)[C@H]2c3cc(C(=O)N4CCCC4)n(Cc4ccc(C)c(F)c4F)c3C[C@H]2CN1C(=O)c1ccccc1` equal to or greater than 0.4?
-- reply n
